Measured Enzyme degradation CDK9 (% remaining) @ 1 μM accompanies every entry in the list below.
molecular target: CDK9 (Homo sapiens, UniProt P50750); construct: endogenous in cells; host or cells: MDA-MB-231; assay: CDK protein degradation activity (Western blotting), CDK9; assay type: cell-based; details: MDA-MB-231 cells, 1 μM, 16 hours, Western blot
Sequence (P50750 whole entry): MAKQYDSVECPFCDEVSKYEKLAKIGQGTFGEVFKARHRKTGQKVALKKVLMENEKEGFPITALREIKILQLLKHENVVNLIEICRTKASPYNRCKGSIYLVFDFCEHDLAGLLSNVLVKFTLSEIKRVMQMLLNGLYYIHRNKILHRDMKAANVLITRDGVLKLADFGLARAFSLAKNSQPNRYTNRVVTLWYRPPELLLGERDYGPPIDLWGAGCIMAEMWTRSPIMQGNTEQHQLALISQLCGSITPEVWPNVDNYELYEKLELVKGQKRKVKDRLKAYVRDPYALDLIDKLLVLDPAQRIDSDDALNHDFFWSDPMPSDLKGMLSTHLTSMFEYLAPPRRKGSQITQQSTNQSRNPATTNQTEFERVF

Record excerpt, results attached:
| COMPOUND | MEASUREMENT |
| --- | --- |
| O=C1CC[C@H](N2C(=O)c3ccc(N4CCC5(CC4)CC(N4CCN(c6ccc(Nc7ncnc8c7ncn8[C@H]7C[C@@H](NC(=O)Cc8ccccc8)C7)cc6)CC4)C5)cc3C2=O)C(=O)N1 [Compound 210] | 0% |
| N#Cc1cccc(C(=O)N[C@H]2C[C@@H](n3cnc4c(Nc5ccc(N6CCN(CC7CCN(c8ccc9nnn([C@H]%10CCC(=O)NC%10=O)c(=O)c9c8)CC7)CC6)cc5)ncnc43)C2)n1 (racemic) [Compound 418] | 0/0/0% |

Documented Enzyme degradation CDK9 (% remaining) @ 1 μM of O=C1CC[C@@H](c2ccc(OCC(=O)N3CCC(CN4CCN(c5ccc(Nc6ncnc7c6ncn7[C@H]6C[C@@H](NC(=O)c7cccc(Cl)n7)C6)cc5)CC4)CC3)cc2)C(=O)N1 [Compound 440] : 10/10/10%

----------
target: CDK9 (Homo sapiens, UniProt P50750); construct: endogenous in cells; host or cells: MDA-MB-231; assay: CDK protein degradation activity (Western blotting), CDK9; assay type: cell-based; conditions: MDA-MB-231 cells, 1 μM, 16 hours, Western blot
MEASURED QUANTITY: Enzyme degradation CDK9 (% remaining) @ 1 μM (%)

Worked set:
| MOLECULE | MEASUREMENT |
| --- | --- |
| Cc1cccc(C(=O)NC2CC(n3cnc4c(NC5CCN(CCC6CCN(C(=O)COc7cccc8c7C(=O)N([C@H]7CCC(=O)NC7=O)C8=O)CC6)CC5)ncnc43)C2)n1 (stereo partly shown) | 0 |
| O=C1CC[C@H](N2C(=O)c3ccc(N4CCC(C(=O)N5CCC(N6CCN(c7ccc(Nc8ncnc9c8ncn9[C@H]8C[C@@H](NC(=O)Cc9ccccc9)C8)cc7)CC6)CC5)CC4)cc3C2=O)C(=O)N1 | 0 |
| O=C1CC[C@H](N2C(=O)c3ccc(N4CCC(CN5CCN(c6ccc(Nc7ncnc8c7ncn8[C@H]7C[C@@H](NC(=O)c8cccc(F)n8)C7)cc6)CC5)CC4)cc3C2=O)C(=O)N1 | 0 |
| Cc1cccc(C(=O)N[C@H]2C[C@@H](n3cnc4c(NC5CCN(CCOC6CCN(c7ccc8c(c7)C(=O)N([C@H]7CCC(=O)NC7=O)C8=O)CC6)CC5)ncnc43)C2)n1 | 0 |

(I) Cc1cccc(C(=O)N[C@H]2C[C@H](n3cnc4c(NCC5CCN(CC6CCN(C(=O)CNc7cccc8c7C(=O)N(C7CCC(=O)NC7=O)C8=O)CC6)CC5)ncnc43)C2)n1 (stereo partly shown)
(II) Cc1cccc(C(=O)NC2CC(n3cnc4c(Nc5ccc(N6CCN(C(=O)COc7ccc8c(c7)C(=O)N([C@H]7CCC(=O)NC7=O)C8=O)CC6)cc5)ncnc43)C2)n1 (stereo partly shown)
Query block: Hey, which is lower on measured Enzyme degradation CDK9 (% remaining) @ 1 μM, I or II ? In your reply, give the label of the chosen option.
Result block: I
